- ASSAY DETAILS: Stability of selected EB3 inhibitors in human blood plasma
- Type: in vitro ADME
- COND: human plasma, 37 °C, 20 hr; perchloric acid (60%) precipitation, LC-MS/MS; read-out: compound remaining in human plasma
Starred links: 1 amine or outer side, 2 acyl side, 3 side chain; linkers in the order of their positions; H or OH if unused. Positions of bridges follow the written chain, without caps; N, C: chain ends. Non-standard residues stand in square brackets, D forms with d. Residues, ends and D or L forms follow the SMILES beside them. *: point of attachment. X2 = C[C@@](CCCCC=[*:3])(N[*:1])C(=O)[*:2]; Leu(4,5-dehydro) = C=C(C)C[C@H](N)C(=O)O; Oic = O=C(O)[C@@H]1C[C@@H]2CCCC[C@@H]2N1; d(tBuAla) = CC(C)(C)C[C@@H](N)C(=O)O; dVal(3-OH) = CC(C)(O)[C@@H](N)C(=O)O; tBuAla = CC(C)(C)C[C@H](N)C(=O)O; R5 = C=CCCC[C@@](C)(N)C(=O)O; S5 = C=CCCC[C@](C)(N)C(=O)O; X1 = O=C(CC(O)CN[*:1])[*:2]; 4Amb = NCc1ccc(C(=O)O)cc1; X3 = NCC(O)CC(=O)*
Measured remaining at 20 h, listed per entry.
PROPERTY LABEL: remaining at 20 h (%)

CC(C)(C)C[C@@H]1NC(=O)[C@](C)(NC(=O)c2ccc(CNC(=O)[C@H](N)C(C)(C)O)cc2)CCC/C=C\CCCC[C@@](C)(C(=O)N[C@H](CC(C)(C)C)C(=O)O)NC(=O)CC(O)CNC(=O)[C@@H]2C[C@@H]3CCCC[C@@H]3N2C1=O (some centres unmarked) [compound 108] (H-[dVal(3-OH)][4Amb][R5][tBuAla][Oic][X1][X2][d(tBuAla)]-OH; staple (Z) 3-7) ... 65
C=C(C)C[C@@H]1NC(=O)[C@](C)(NC(=O)c2ccc(CNC(=O)CC(O)CN)cc2)CCC/C=C\CCC[C@@](C)(C(=O)N[C@H](CC(C)(C)C)C(=O)O)NC(=O)CC(O)CNC(=O)[C@@H]2C[C@@H]3CCCC[C@@H]3N2C1=O (some centres unmarked) [compound 107] ({X3-4Amb}-[R5][Leu(4,5-dehydro)][Oic][X1][S5][d(tBuAla)]-OH; staple (Z) 1-5) ... 65
